The measured values listed here are drawn from patent US20260151494A1.

target: apical domain of CD71 (Screen 3: 'cynomolgus apical domain of human CD71') (cynomolgus (as paragraph 454 words it; ambiguous)); test: primary ELISA
metric: RLU (RLU)
Give the value, in units of RLU, as a plain number.

Would you please look over these solved cases?
# binder, RLU, RLU
data = [
    ("CD71-binding FN3 domain SEQ ID NO: 323 (designed binder) MSLPAPKNLVVSRVTEDSARLSWTAPDAAFDSFEIGYFENLYLGEAIVLTVPGSERSYDLTGLKPGTEYWVQIGGVKGGNWSGPLSAIFTT", "4.22e+06"),
    ("CD71-binding FN3 domain SEQ ID NO: 297 (designed binder) MSLPAPKNLVVSRVTEDSARLSWTAPDAAFDSFEISYFENTWYGEAIVLTVPGSERSYDLTGLKPGTEYSVRIFGVKGGNFSFPLSAIFTT", "5.29e+06"),
    ("CD71-binding FN3 domain SEQ ID NO: 258 (designed binder) MSLPAPKNLVVSRVTEDSARLSWTAPDAAFDSFFIGYLEPQPPGEAIVLGVPGSERSYDLTGLKPGTEYNVTIQGVKGGFPSDPLVASFTT", "6.79e+06"),
]

# ---- query binder ----
Query: # return recorded RLU for input CD71-binding FN3 domain SEQ ID NO: 275 (designed binder) MSLPAPKNLVVSRVTEDSARLSWTAPDAAFDSFEIGYFENLYLGEAIVLTVPGSERSYDLTGLKPGTEYWVQIGGVKGGNWSAPLVAEFTT
Result: 5.44e+06
